Values compiled from patent US20170136010A1.

# test-details: Mean particle size by laser diffraction scattering particle size distribution analyzer
# Type: physicochemical
# condition-description: volume mean diameter, dry
observation-type: Mean particle size (μm)

O=C1CCc2ccc(OCCCCN3CCN(c4cccc(Cl)c4Cl)CC3)cc2N1 [compound 2]: 5.1
O=C1CCc2ccc(OCCCCN3CCN(c4cccc(Cl)c4Cl)CC3)cc2N1 [compound 3]: 8.9
O=C1CCc2ccc(OCCCCN3CCN(c4cccc(Cl)c4Cl)CC3)cc2N1 [compound 4]: 9.6
O=C1CCc2ccc(OCCCCN3CCN(c4cccc(Cl)c4Cl)CC3)cc2N1 [Reference Example 1]: 2.6

====

# test-details: Hygroscopic test of finely milled powder, water content by Karl Fischer method
# Type: physicochemical
# condition-description: 0 hour
Each entry below lists one item and its recorded Water content level (wt %), hygroscopic test of finely milled aripiprazole crystal, 0 hour value.
observation-type: Water content level (wt %), hygroscopic test of finely milled aripiprazole crystal, 0 hour

O=C1CCc2ccc(OCCCCN3CCN(c4cccc(Cl)c4Cl)CC3)cc2N1 [compound 4]: 0.29
O=C1CCc2ccc(OCCCCN3CCN(c4cccc(Cl)c4Cl)CC3)cc2N1 [compound 2]: 0.21
O=C1CCc2ccc(OCCCCN3CCN(c4cccc(Cl)c4Cl)CC3)cc2N1 [compound 3]: 0.24
O=C1CCc2ccc(OCCCCN3CCN(c4cccc(Cl)c4Cl)CC3)cc2N1 [Reference Example 1]: 0.10
